# System: ATP;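 also: ATP exposure 15 min at 22 °C before imaging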
# EXPERIMENTAL PROTOCOL: switch fluorescence ratio, 500 uM ATP over buffer (Cy3 cluster intensity, sum of 5 cycles each) (fold (ratio)); higher = stronger signal-on switching upon ATP binding; sequences stand for … in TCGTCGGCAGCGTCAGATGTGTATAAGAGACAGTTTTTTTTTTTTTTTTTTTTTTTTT…TC
# MEASUREMENT SETUP: aptamer strand: ATP DNA aptamer (quencher-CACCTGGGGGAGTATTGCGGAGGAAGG + anchor), 100 nM annealed; ATP concentration: 500 uM
MEASURED PARAMETER: switch fluorescence ratio
Could you keep your reply to the number by itself?

TTTTTTGATA | 0.981

Ask: State its switch fluorescence ratio for this sequence: TCAGTTTTTC
Result: 1.01

Ask: State its switch fluorescence ratio for this sequence: CGTCTACATG
Result: 1.03

Ask: State its switch fluorescence ratio for this sequence: GAGAGGGTAG
Result: 0.98

Ask: State its switch fluorescence ratio for this sequence: GGGCAAGGTT
Result: 0.968
